Target: recombinant human HDAC8 (Homo sapiens)
Construct: made in house; host or cells: insect cells
Sequence (Q9BY41 whole entry): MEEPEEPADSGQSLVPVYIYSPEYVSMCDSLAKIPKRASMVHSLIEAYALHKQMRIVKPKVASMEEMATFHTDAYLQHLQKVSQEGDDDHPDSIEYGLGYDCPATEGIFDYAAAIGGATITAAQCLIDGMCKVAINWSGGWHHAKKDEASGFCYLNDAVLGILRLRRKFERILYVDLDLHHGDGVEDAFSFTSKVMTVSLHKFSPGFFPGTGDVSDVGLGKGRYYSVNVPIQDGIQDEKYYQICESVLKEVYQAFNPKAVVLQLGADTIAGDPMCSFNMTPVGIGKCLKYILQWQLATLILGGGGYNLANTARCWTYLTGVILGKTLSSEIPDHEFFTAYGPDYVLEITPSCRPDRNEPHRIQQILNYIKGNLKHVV
Experiment: HDAC8 inhibition: recombinant HDAC8 fluorometric assay
Format: biochemical
Conditions: recombinant human HDAC8, substrate Ac-Arg-His-Lys-Lys(ε-acetyl)-AMC; read-out: HDAC8 IC50
Reported log10 of IC50 values follow for various molecules
Property measured: log10 of IC50 (log10 of the value in nM)

>  <Molecule>
O=C(NO)c1ccc(NC2CCN(c3cc(Cl)ccc3F)C2=O)cc1 (stereo not drawn) [Example 22]

>  <log10 of IC50>
3.29

$$$$
>  <Molecule>
C[C@H](c1ccccc1)N1CCC(Nc2ccc(C(=O)NO)cc2)C1=O (stereo partly drawn) [Example 45]

>  <log10 of IC50>
2.81

$$$$
>  <Molecule>
O=C(NO)c1ccc(NC2CC(=O)N(c3ccc(F)cc3)C2)cc1 (stereo not drawn) [Example 70]

>  <log10 of IC50>
2.30

$$$$
>  <Molecule>
O=C(NO)c1ccc(NC2CCN(c3cccc(Cl)c3)C2=O)cc1F (stereo not drawn) [Example 67]

>  <log10 of IC50>
3.33

$$$$
>  <Molecule>
CC(C)(c1cccc(Cl)c1)N1CCC(Nc2ccc(C(=O)NO)cc2)C1=O (stereo not drawn) [Example 49]

>  <log10 of IC50>
2.69

$$$$
>  <Molecule>
O=C(NO)c1ccc(NC2CCN(C3(c4ccccc4)CCCCC3)C2=O)cc1 (stereo not drawn) [Example 56]

>  <log10 of IC50>
3.05

$$$$
>  <Molecule>
CN(C)CCOc1cccc(N2CCC(Nc3ccc(C(=O)NO)cc3)C2=O)c1 (stereo not drawn) [Example 36]

>  <log10 of IC50>
2.69

$$$$
>  <Molecule>
O=C(NO)c1ccc(NC2CCN(c3ccccc3)C2=O)c(Cl)c1 (stereo not drawn) [Example 69]

>  <log10 of IC50>
2.93

$$$$
>  <Molecule>
O=C(NO)c1ccc(NC2CCN(c3ccccc3)C2)cc1 (stereo not drawn) [Example 79]

>  <log10 of IC50>
3.23

$$$$

###

Reported EC50 values follow for various molecules
Target: HDAC6 (Homo sapiens)
Construct: endogenous in cells
Sequence (Q9UBN7 whole entry): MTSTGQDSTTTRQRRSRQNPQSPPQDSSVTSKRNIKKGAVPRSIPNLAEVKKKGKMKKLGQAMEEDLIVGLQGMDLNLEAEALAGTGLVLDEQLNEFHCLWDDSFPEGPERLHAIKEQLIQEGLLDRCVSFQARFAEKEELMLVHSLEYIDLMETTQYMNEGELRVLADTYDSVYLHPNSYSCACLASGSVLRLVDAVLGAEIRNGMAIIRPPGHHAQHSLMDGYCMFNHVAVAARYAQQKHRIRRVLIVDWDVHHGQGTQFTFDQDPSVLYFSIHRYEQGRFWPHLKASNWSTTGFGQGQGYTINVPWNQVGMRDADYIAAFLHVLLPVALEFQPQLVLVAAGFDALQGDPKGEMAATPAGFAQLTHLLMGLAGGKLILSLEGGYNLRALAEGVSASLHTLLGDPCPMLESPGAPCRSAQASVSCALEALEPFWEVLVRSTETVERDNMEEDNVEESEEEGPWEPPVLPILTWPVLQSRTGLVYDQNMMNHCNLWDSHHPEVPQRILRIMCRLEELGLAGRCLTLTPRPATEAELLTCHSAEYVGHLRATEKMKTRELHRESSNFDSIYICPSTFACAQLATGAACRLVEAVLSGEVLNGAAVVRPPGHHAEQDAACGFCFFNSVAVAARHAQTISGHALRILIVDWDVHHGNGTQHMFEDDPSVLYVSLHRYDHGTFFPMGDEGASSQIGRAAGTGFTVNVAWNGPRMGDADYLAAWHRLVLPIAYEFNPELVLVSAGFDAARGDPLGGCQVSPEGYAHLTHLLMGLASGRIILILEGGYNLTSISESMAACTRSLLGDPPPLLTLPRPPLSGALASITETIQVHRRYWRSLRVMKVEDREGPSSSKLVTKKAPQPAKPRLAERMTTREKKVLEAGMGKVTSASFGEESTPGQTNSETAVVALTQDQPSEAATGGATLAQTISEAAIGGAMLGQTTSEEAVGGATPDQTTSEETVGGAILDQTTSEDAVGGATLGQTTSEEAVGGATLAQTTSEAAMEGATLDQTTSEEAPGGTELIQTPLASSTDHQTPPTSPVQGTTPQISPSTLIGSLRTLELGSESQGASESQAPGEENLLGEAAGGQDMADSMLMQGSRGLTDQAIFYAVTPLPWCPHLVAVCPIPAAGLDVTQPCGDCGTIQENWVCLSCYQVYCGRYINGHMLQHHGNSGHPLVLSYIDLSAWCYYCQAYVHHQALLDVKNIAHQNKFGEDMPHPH
Experiment: Tubulin acetylation cytoblot assay (A549 cells)
Conditions: 17-18 h incubation, tubulin acetylation as marker of HDAC6 inhibition, read-out: Tub-Ac EC50

>  <Molecule>
O=C(NO)c1ccc(NC2CCN(c3cccc(Cl)c3)C2=O)cc1F (stereo not shown) [Example 67]

>  <Tested system>
HDAC6 (Homo sapiens)

>  <EC50 [nM]>
6230

$$$$
>  <Molecule>
COc1cccc(N2CC(Nc3ccc(C(=O)NO)cc3)CC2=O)c1 (stereo not shown) [Example 74]

>  <Tested system>
HDAC6 (Homo sapiens)

>  <EC50 [nM]>
1840

$$$$
>  <Molecule>
O=C(NO)c1ccc(NC2CCN(c3ccccc3)C2)cc1 (stereo not shown) [Example 79]

>  <Tested system>
HDAC6 (Homo sapiens)

>  <EC50 [nM]>
4540

$$$$
>  <Molecule>
O=C(NO)c1ccc(NC2CCN(C3(c4ccccc4)CCCCC3)C2=O)cc1 (stereo not shown) [Example 56]

>  <Tested system>
HDAC6 (Homo sapiens)

>  <EC50 [nM]>
2820

$$$$
>  <Molecule>
O=C(NO)c1ccc(NC2CCN(c3ccccc3)C2=O)cc1F (stereo not shown) [Example 66]

>  <Tested system>
HDAC6 (Homo sapiens)

>  <EC50 [nM]>
2420

$$$$
>  <Molecule>
O=C(NO)c1ccc(NC2CCN(c3ncccn3)C2)cc1 (stereo not shown) [Example 83]

>  <Tested system>
HDAC6 (Homo sapiens)

>  <EC50 [nM]>
1110

$$$$
>  <Molecule>
CC1(Nc2ccc(C(=O)NO)cc2)CCN(c2cccc(Cl)c2)C1=O (stereo not shown) [Example 59]

>  <Tested system>
HDAC6 (Homo sapiens)

>  <EC50 [nM]>
300

$$$$
>  <Molecule>
O=C(NO)c1ccc(NC2CCN(c3cccc(C(F)(F)F)c3)C2=O)cc1 (stereo not shown) [Example 11]

>  <Tested system>
HDAC6 (Homo sapiens)

>  <EC50 [nM]>
8310

$$$$
>  <Molecule>
O=C(NO)c1ccc(NC2CCN(c3cccc4cccnc34)C2=O)cc1 (stereo not shown) [Example 39]

>  <Tested system>
HDAC6 (Homo sapiens)

>  <EC50 [nM]>
13100

$$$$
>  <Molecule>
CC1(Nc2ccc(C(=O)NO)cc2)C(=O)N(CCc2ccccc2)c2ccccc21 (stereo not shown) [Example 94]

>  <Tested system>
HDAC6 (Homo sapiens)

>  <EC50 [nM]>
150

$$$$
>  <Molecule>
CC1(Nc2ccc(C(=O)NO)cc2)CCN(c2cccc(F)c2)C1=O (stereo not shown) [Example 58]

>  <Tested system>
HDAC6 (Homo sapiens)

>  <EC50 [nM]>
1000

$$$$
>  <Molecule>
O=C(NO)c1ccc(NC2CCN(c3ccccc3)C2=O)cc1 (stereo not shown) [Example 1]

>  <Tested system>
HDAC6 (Homo sapiens)

>  <EC50 [nM]>
5860

$$$$
>  <Molecule>
CC1(Nc2ccc(C(=O)NO)cc2)C(=O)N(c2cccc(Cl)c2)c2ccc(F)cc21 (stereo not shown) [Example 98]

>  <Tested system>
HDAC6 (Homo sapiens)

>  <EC50 [nM]>
190

$$$$
>  <Molecule>
Cc1cc(F)cc(C)c1N1CCC(Nc2ccc(C(=O)NO)cc2)C1=O (stereo not shown) [Example 28]

>  <Tested system>
HDAC6 (Homo sapiens)

>  <EC50 [nM]>
4110

$$$$
>  <Molecule>
COc1cccc(N2CCC(Nc3ccc(C(=O)NO)cc3)C2=O)c1 (stereo not shown) [Example 8]

>  <Tested system>
HDAC6 (Homo sapiens)

>  <EC50 [nM]>
4120

$$$$
>  <Molecule>
O=C(NO)c1ccc(NC2CC(=O)N(c3ccc(Cl)cc3)C2)cc1 (stereo not shown) [Example 73]

>  <Tested system>
HDAC6 (Homo sapiens)

>  <EC50 [nM]>
1470

$$$$
>  <Molecule>
O=C(NO)c1ccc(NC2CC(=O)N(Cc3ccccc3)C2)cc1 (stereo not shown) [Example 75]

>  <Tested system>
HDAC6 (Homo sapiens)

>  <EC50 [nM]>
4560

$$$$
>  <Molecule>
CC(C)c1cccc(N2CCC(Nc3ccc(C(=O)NO)cc3)C2=O)c1 (stereo not shown) [Example 13]

>  <Tested system>
HDAC6 (Homo sapiens)

>  <EC50 [nM]>
1530

$$$$
>  <Molecule>
CC1(Nc2ccc(C(=O)NO)cc2)C(=O)N(Cc2ccccc2Cl)c2ccccc21 (stereo not shown) [Example 92]

>  <Tested system>
HDAC6 (Homo sapiens)

>  <EC50 [nM]>
330

$$$$
